Assay: qHTS assay to identify small molecule HDAC inhibitors - cell viability counter screen (AID 1259365); further: nearly all actives have a fitted effect of over 50% in size
Conditions: HCT-116 viability, CellTiter-Glo ATP luminescence, 2 h; series mostly up to 92.4 µM
Description: U.S. Tox21 Program National Center for Advancing Translational Sciences [NCATS] NIH Chemical Genomics Center [NCGC] U.S. Environmental Protection Agency [EPA] National Institutes of Environmental Health Sciences [NIEHS] National Toxicology Program [NTP] U.S. Food and Drug Administration [FDA] Tox21 Assay Overview: Histone deacetylases (HDACs) are a group of epigenetic enzymes that regulate gene expression by histone deacetylation. […]
Active and inactive are the calls of the source. The call rests on the fitted dose curve; in most records, active means well fitted cell-killing curve with a large enough effect in the repeat runs; inconclusive means weak or mixed curves, or effect the other way; inactive means flat fitted curve, though single readings scatter.

- Compound: "O=S(=O)(NS(=O)(=O)C(F)(F)F)C(F)(F)F"
  outcome: "inactive"
- Compound: "CC(=O)O.CC(=O)O.CC(=O)O.CC(=O)O.CC(=O)O.CC(=O)O.CC(=O)O.O.O.[Cr].[Cr].[Cr]"
  outcome: "inactive"
- Compound: "CCN(CC)CCN1C(=O)CN=C(c2ccccc2F)c2cc(Cl)ccc21"
  outcome: "inactive"
- Compound: "CCC[CH2][Sn]([CH2]CCC)([O]C(C)=O)[O]C(C)=O"
  outcome: "inactive"
- Compound: "CC[N+]1(CC)CCC(OC(=O)C(O)(c2ccccc2)c2ccccc2)C1 (stereo unspecified)"
  outcome: "inactive"
- Compound: "CCCCN(CCCC)C(=S)S"
  outcome: "inactive"
- Compound: "CN1CCc2cc(Cl)c(O)cc2[C@H]2c3ccccc3CC[C@@H]21"
  outcome: "inactive"
- Compound: "ClSC(Cl)(Cl)Cl"
  outcome: "inactive"
- Compound: "[Cl-].[Cl-].[Cl-].[Yb+3]"
  outcome: "inactive"
- Compound: "CSC(C)(C)/C=N/O"
  outcome: "inactive"
- Compound: "C=Cc1cccc(CCl)c1"
  outcome: "inactive"
- Compound: "Nc1nc(N)c(N)c(N)n1"
  outcome: "inactive"
- Compound: "Clc1ccc(C2(Cn3cncn3)OCCO2)c(Cl)c1"
  outcome: "inactive"
- Compound: "Clc1ccc(C(Cl)(Cl)Cl)cc1Cl"
  outcome: "inactive"
- Compound: "Cc1ccn2nc(S(=O)(=O)Nc3c(F)cccc3F)nc2n1"
  outcome: "inactive"
- Compound: "CSC(=O)c1c(C(F)F)nc(C(F)(F)F)c(C(=O)SC)c1CC(C)C"
  outcome: "inactive"
- Compound: "CCOP(=S)(NC(C)C)Oc1ccccc1C(=O)OC(C)C (stereo unspecified)"
  outcome: "inactive"
- Compound: "ClC1=C(Cl)[C@]2(Cl)[C@H]3[C@H]([C@@H]4C=C[C@H]3C4)[C@@]1(Cl)C2(Cl)Cl"
  outcome: "inactive"
- Compound: "O=P(Cl)(Cl)Cl"
  outcome: "inactive"
- Compound: "CNC(=O)/C=C(\\C)OP(=O)(OC)OC"
  outcome: "inactive"
- Compound: "Nc1ccc(Cl)cc1C(=O)c1ccccc1F"
  outcome: "inactive"
- Compound: "CO/N=C(/C1=NOCCO1)c1ccccc1Oc1ncnc(Oc2ccccc2Cl)c1F"
  outcome: "inactive"
- Compound: "CN1CCc2cc3c(cc2C1O)OCO3 (stereo unspecified)"
  outcome: "inactive"
- Compound: "O=S1OCC2C(CO1)C1(Cl)C(Cl)=C(Cl)C2(Cl)C1(Cl)Cl (stereo unspecified)"
  outcome: "inactive"
- Compound: "N#CSCc1ccccc1"
  outcome: "inactive"
- Compound: "CCNc1nc(NC(C)C(C)C)nc(SC)n1 (stereo unspecified)"
  outcome: "inactive"
